- Assay Details: Antitumor activity against Mus musculus (mouse) EAC xenografted in Mus musculus Swiss albino (mouse) assessed as viable cells at 50 mg/kg, ip qd for 7 days relative to control
- Type: functional, Ehrlich
- Experimental Parameters: route intraperitoneal
Measure: Activity (%)
Unit % implied. Number only.

// worked examples, Activity included
O=[N+]([O-])c1ccc(-c2nn(CNc3ccccc3)c(=S)o2)cc1; 33.5
Oc1ccc(-c2nn(CNc3ccccn3)c(=S)o2)cc1; 22.5
S=c1oc(-c2ccc(Cl)cc2Cl)nn1CNc1ccccn1; 27.33

Read off the recorded Activity for "Cc1ccc(-c2nn(CNc3ccccn3)c(=S)o2)cc1"
24.83

Read off the recorded Activity for "O=[N+]([O-])c1ccc(-c2nn(CNc3ccccn3)c(=S)o2)cc1"
36.83
